Origin of the recorded values: the supplement of paper PMC10567573

Below, each of the sequences is paired with its reported protein stability index value.
- assay-remarks: protein stability index of a GFP-peptide fusion (GPS, HEK-293T) (PSI 1-6); higher = more stable;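 note: 24-mer peptide tiles fused after GFP, lentivirally expressed, FACS-sorted into six equal bins by GFP/DsRed ratio, decoded by Illumina sequencing, PSI is the read-weighted mean bin number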
- settings: treatment: MLN4924 1 uM, 8 h; c terminus: a fixed tail appended
// print number alone

These solved cases illustrate the format of a correct answer.
• ALELLGATFVDKKRDLLGALKYWK [FEM1C] = 2.52
• AAPAGSLSRKKRLELDDNLDTERP [TRIB3] = 5.27

Entry MPEEVHHGEEEVETFAFQAEIAQL [HSP90AB1] , protein stability index reported as 5.16

Entry TRFILSKVPSEAPSPMPTHRSYLG [SLC6A17] , protein stability index reported as 2.64

Entry SSSQEIPTMPQPIEKVSVSTQTKK [ZMYND11] , protein stability index reported as 5.37
